This collection of values is drawn from the supplement of paper PMC7394473.

- Tested on: U2OS
- test: fractional viability (live cells / total cells); higher = less cell death
- condition description: 1 µM; 72 h
measured parameter: fractional viability

molecule	value measured
CC(C)C[C@@H](C=O)NC(=O)[C@H](CC(C)C)NC(=O)[C@H](CC(C)C)NC(=O)OCc1ccccc1	0.929
CC[C@@H](C(=O)[C@@H](C)[C@@H](O)[C@H](C)[C@@H]1O[C@@H]([C@@H](CC)C(=O)O)CC[C@@H]1C)[C@H]1O[C@]2(C=C[C@@H](O)[C@]3(CC[C@@](C)([C@H]4CC[C@](O)(CC)[C@H](C)O4)O3)O2)[C@H](C)C[C@@H]1C	0.899
Cc1cc2c(C(=O)NC[C@H](C)c3ccccc3)c(O)c(O)cc2c(O)c1-c1c(C)cc2c(C(=O)NC[C@H](C)c3ccccc3)c(O)c(O)cc2c1O	0.982
CCNC(=O)c1noc(-c2cc(C(C)C)c(O)cc2O)c1-c1ccc(CN2CCOCC2)cc1	0.442
COC(=O)c1ccc2c(c1)NC(=O)/C2=C(\Nc1ccc(N(C)C(=O)CN2CCN(C)CC2)cc1)c1ccccc1	0.758
C=CCc1ccc(O)c(-c2ccc(O)c(CC=C)c2)c1	0.978
C[C@H]1[C@H](OC(=O)CCC(=O)O)O[C@@H]2O[C@@]3(C)CC[C@H]4[C@H](C)CC[C@@H]1[C@@]24OO3 [Artesunate]	0.977
C[C@@H]1O[C@@H](O[C@H]2C[C@@H](O)[C@]3(CO)[C@H]4[C@H](O)C[C@]5(C)[C@@H](C6=CC(=O)OC6)CC[C@]5(O)[C@@H]4CC[C@]3(O)C2)[C@H](O)[C@H](O)[C@H]1O	0.149
Cc1ccc(C(=O)N(CCCN)[C@@H](c2oc3cc(Cl)ccc3c(=O)c2Cc2ccccc2)C(C)C)cc1	0.782
CN(C)/N=N/c1[nH]cnc1C(N)=O	0.975
COC(=O)Nc1nc2cc(C(=O)c3ccc(F)cc3)ccc2[nH]1	0.766
Cc1[nH]c2ccccc2c1CCNCc1ccc(/C=C/C(=O)NO)cc1	0.685
